test: basal RPMI8226 viability, no added stimulus, profiling panel, cell-based, calcein-AM fluorescence, 48 h, PK04 Diversity Set (AID 1166); details: RPMI8226 myeloma viability, higher = more signal;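 note: cells grown under basal conditions without added stimulus; test concentration not given here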
QUANTITY MEASURED: z-score
Reply: number alone, nothing else.

compound=C=CCOC(=O)[C@H]1[C@@H]2C(=O)O[C@@H](c3ccccc3)[C@@H](c3ccccc3)N2[C@@H](c2ccc(OCCOC(=O)[C@@H]3C[C@@H]4C(=O)N[C@@H](CCCC[N+](C)(C)C)C(=O)N4[C@@H]3c3ccc(O)cc3)cc2)[C@]12C(=O)Nc1ccccc12 measured_number=0.95

Measured z-score of COCCOC(=O)N1C(=O)[C@@]2(c3cc(C#CC4=CCCCC4)ccc31)[C@H](C(=O)Nc1nc3ccccc3s1)[C@H]1C(=O)O[C@H](c3ccccc3)[C@H](c3ccccc3)N1[C@@H]2c1ccccc1OCCO : -2.27

Notebook: O=C1C[C@]2(c3ccc([N+](=O)[O-])cc3)C(=O)N(CCN3CCOCC3)c3cc(CO)ccc3[C@H]2N1C1CCCCC1 , z-score read as 0.346

----------
test: S. cerevisiae growth modulation with rapamycin, primary screen, strain BY4716, OD600, 96 h (AID 1091); details: higher = more signal, called active from +8 up or from −8 down; note: test concentration not given here
Active and inactive are the calls of the source.
QUANTITY MEASURED: z-score

The cases that follow already have their z-score on record.
molecule=COc1ccc(C(=O)Nc2ccc(CN3C(=O)[C@@]4(O[C@@H](CCO)[C@H]([Si](C)(C)c5ccc(OC)cc5)[C@H]4C)c4ccccc43)cc2)cc1 quantity_measured=z-score result="0.495 (inactive)"
molecule=CC(=O)NCCCC[C@@H]1NC(=O)[C@@H]2C[C@H](C(=O)NCCCCCCNC(=O)CS)[C@H](c3cccc(OCCO)c3)N2C1=O quantity_measured=z-score result="-0.0963 (inactive)"
molecule=COCCOC(=O)N1C(=O)[C@@]2(c3cc(C#Cc4ccc(OC)cc4)ccc31)[C@H](C(N)=O)[C@H]1C(=O)O[C@H](c3ccccc3)[C@H](c3ccccc3)N1[C@@H]2c1ccccc1OCCO quantity_measured=z-score result="3.72 (inactive)"
molecule=COCCn1c(C(=O)N2CCCC2)cc2c1C[C@H]1CN(C(=O)c3ccccc3)[C@@](Cc3ccc(F)cc3)(C(=O)OC)[C@@H]21 quantity_measured=z-score result="-0.0799 (inactive)"
molecule=Cc1ccc(S[C@]2(C(=O)NC(C)C)CC(=O)N(Cc3ccccc3Cl)[C@@H]2c2ccc(CO)cc2I)cc1 quantity_measured=z-score result="0.239 (inactive)"

// recorded z-score for CCCCCN1CC=CC23O[C@@H]4/C=C\CCCOC(=O)C4[C@H]2C(=O)N(C(CO)C(C)C)[C@@H]3C1=O (some centres undefined) : -0.809 (inactive)

Value of z-score reported for the molecule O=C(O)[C@@]1(CCS(=O)(=O)c2ccccc2)COC(c2ccc(OCCCO)cc2)=N1 is -0.717 (inactive)

Looking up Cc1ccc(S[C@]2(C(=O)NCCN3CCOCC3)CC(=O)N(Cc3ccccc3Cl)[C@@H]2c2ccc(CO)cc2)cc1 , I found its z-score recorded as -0.812 (inactive)

Briefly, z-score measured for COC(=O)[C@@]1(Cc2ccc(OC)cc2)[C@H]2c3cc(C(=O)N(C)C)n(CCN4CNCC4=O)c3C[C@H]2CN1C(=O)c1ccccc1 : -0.567 (inactive)
